assay: Clearance in fasted Sprague-Dawley rat at 1.1 mg/kg, iv and 2.1 mg/kg, po by HTLC-MS/MS analysis; assay type: ADME, organism-based; settings: in vivo
Attribute measured: clearance (mL/min/kg)
Supply the numeric figure in mL/min/kg, leaving out any unit text.

Entry "O=C(O)CCNC(=O)c1ccc(CN(c2ccc3c(c2)Cc2ccccc2-3)c2nc(-c3ccc(OC(F)(F)F)cc3)cs2)cc1" , clearance reported as 5

----------
experiment: Tmax in fasted Sprague-Dawley rat at 1.1 mg/kg, iv and 2.1 mg/kg, po by HTLC-MS/MS analysis; assay type: ADME, organism-based; details: in vivo
Attribute measured: Tmax (h)
Supply the numeric figure in h, leaving out any unit text.

Entry "O=C(O)CCNC(=O)c1ccc(CN(c2ccc3c(c2)Cc2ccccc2-3)c2nc(-c3ccc(OC(F)(F)F)cc3)cs2)cc1" , Tmax reported as 5
